Target: Adenosine A2A receptor (Homo sapiens, UniProt P29274)
Sequence (P29274 whole entry): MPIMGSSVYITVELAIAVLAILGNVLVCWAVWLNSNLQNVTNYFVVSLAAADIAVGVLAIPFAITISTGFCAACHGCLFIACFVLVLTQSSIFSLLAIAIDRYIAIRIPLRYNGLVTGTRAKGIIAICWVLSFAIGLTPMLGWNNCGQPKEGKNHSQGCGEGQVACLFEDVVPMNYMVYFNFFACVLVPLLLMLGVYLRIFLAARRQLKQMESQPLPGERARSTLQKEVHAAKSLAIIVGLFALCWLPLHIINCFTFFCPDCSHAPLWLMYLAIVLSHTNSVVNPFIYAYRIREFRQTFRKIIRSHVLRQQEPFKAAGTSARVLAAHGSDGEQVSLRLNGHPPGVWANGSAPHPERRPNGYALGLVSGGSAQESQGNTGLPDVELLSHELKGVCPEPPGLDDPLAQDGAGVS
Test: cAMP assay in 293A cells stably expressing the adenosine A2A receptor (CGS21680 stimulation, HTRF)
Format: cell-based
Design: expressed in transfected cells; host or cells: 293A cells (Invitrogen, Cat# R705-07) infected with A2A-expressing lentivirus (custom packaged by Biosettia), puromycin selected
Details: 293A-A2AR cells, 0.1% BSA, 1 uM CGS; read-out: cAMP (nM) 0.1% BSA, 1 uM CGS
Procedure: A 293A cell line (Invitrogen, Cat# R705-07) stably expressing the adenosine A2A receptor was generated in house. Briefly, 293A cells were seeded in 6-well plate and infected with A2A expressing lentivirus (custom packaged by Biosettia) and selected with puromycin (1 ug/ml). […] After 1 h incubation at room temperature, plates were read in CIARIOstar plate reader (BMG Labtech) using the HTRF detection mode.
measured.metric: IC50 (nM)

[I] Cc1cc(-c2c(NCc3nc4ccccc4n3C)nc(N)nc2-c2ccc(F)cc2)cc(C(F)F)n1
[II] CCc1nn(CC(O)COC)nc1COc1nc(N)nc(-c2ccc(F)cc2)c1-c1cc(C)nc(C(F)F)c1 (stereo not shown)
[III] Cc1cc(-c2c(OCc3cccc(C(C)(C)OCC(=O)O)n3)nc(N)nc2-c2ccc(F)cc2)cc(C(F)F)n1
Incoming: Rank the items in ascending order with respect to IC50. The response must list the labels following the requested ordering.
Outgoing: II, III, I

Hello, the source for this data is patent US20210355104A1, in case you need it.
